- assayed_system: Cytochrome P450 3A4 (Homo sapiens) (UniProt P08684)
- Sequence (P08684 whole entry, looked up): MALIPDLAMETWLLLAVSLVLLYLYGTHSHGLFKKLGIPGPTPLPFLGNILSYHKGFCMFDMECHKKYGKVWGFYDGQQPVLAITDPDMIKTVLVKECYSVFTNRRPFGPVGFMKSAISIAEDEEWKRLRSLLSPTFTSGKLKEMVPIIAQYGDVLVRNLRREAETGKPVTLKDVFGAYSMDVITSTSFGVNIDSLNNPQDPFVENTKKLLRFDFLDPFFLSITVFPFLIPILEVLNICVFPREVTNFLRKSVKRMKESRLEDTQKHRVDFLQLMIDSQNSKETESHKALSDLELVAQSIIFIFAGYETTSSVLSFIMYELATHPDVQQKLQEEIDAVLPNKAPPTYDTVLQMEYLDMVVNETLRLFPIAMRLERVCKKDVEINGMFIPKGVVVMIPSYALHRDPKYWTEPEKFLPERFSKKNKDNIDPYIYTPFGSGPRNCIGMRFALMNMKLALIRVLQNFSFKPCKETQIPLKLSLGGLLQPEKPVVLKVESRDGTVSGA
- assay_text: Cytochrome panel assay with activity outcomes
- experimental_parameters: recombinant CYP, pro-luciferin dealkylation, luminescence, p450-cyp3a4; series mostly up to 57.1 µM
Among all 16,000 compounds or so, about 5,100 (32%) were called active. Roughly 25% stayed inconclusive and do not appear here. Calls come from the whole dose curve; as a rule, active = well fitted curve in the direction sought with a large enough effect; inconclusive = small, poorly fitted or top-dose-only effect, or effect the other way; inactive = no such curve, though single readings can be large or run the other way. The list shows a part of the results.
Output constraint: value belongs to active, inactive

Completed entries (count: 8):
{"compound": "NS(=O)(=O)c1ccc(CCNC(=O)C2CCCN2C(=O)OCc2ccccc2)cc1 (stereo unspecified)", "assayed_system": "Cytochrome P450 3A4 (Homo sapiens) (UniProt P08684)", "class_label": "active"}
{"compound": "O=C(Nc1cccc(F)c1)N1CC2(CCN(S(=O)(=O)c3ccccc3)CC2)C1", "assayed_system": "Cytochrome P450 3A4 (Homo sapiens) (UniProt P08684)", "class_label": "inactive"}
{"compound": "O=C(CCC1CCCCC1)Nc1c2c(nn1-c1ccc(F)cc1)CS(=O)(=O)C2", "assayed_system": "Cytochrome P450 3A4 (Homo sapiens) (UniProt P08684)", "class_label": "active"}
{"compound": "CCN(CC)CCOC(=O)C1(c2ccc([N+](=O)[O-])cc2)CCCC1", "assayed_system": "Cytochrome P450 3A4 (Homo sapiens) (UniProt P08684)", "class_label": "inactive"}
{"compound": "O=C(Nc1cccc(NC(=O)c2ccccc2[N+](=O)[O-])n1)c1ccccc1[N+](=O)[O-]", "assayed_system": "Cytochrome P450 3A4 (Homo sapiens) (UniProt P08684)", "class_label": "active"}
{"compound": "COc1ccc2[nH]cc(CCNc3ccnc(-c4ccoc4)n3)c2c1", "assayed_system": "Cytochrome P450 3A4 (Homo sapiens) (UniProt P08684)", "class_label": "active"}
{"compound": "COCCCn1nnnc1SCC(=O)N1CCCC1", "assayed_system": "Cytochrome P450 3A4 (Homo sapiens) (UniProt P08684)", "class_label": "inactive"}
{"compound": "Cc1nnc(C)n1/N=C/c1cccs1", "assayed_system": "Cytochrome P450 3A4 (Homo sapiens) (UniProt P08684)", "class_label": "inactive"}

Problem: What classification did `COCC(=O)N1CCC[C@@]2(CCN(Cc3ccccc3OC)C2)C1` end up with in this test?
Solution: inactive

Problem: What classification did `Cc1ccc(NC(=O)NNS(=O)(=O)c2ccc(Br)cc2)cc1` end up with in this test?
Solution: inactive

Problem: What classification did `c1cc(NC2CC2)nc(-c2ccoc2)n1` end up with in this test?
Solution: active

====

- assayed_system: Cytochrome P450 3A4 (Homo sapiens)
- assay_text: Cytochrome panel assay with activity outcomes; for activity, negative = inhibition: % is set by controls: 0 for no effect and ±100 for the full control effect
- experimental_parameters: recombinant CYP, pro-luciferin dealkylation, luminescence, p450-cyp3a4; series mostly up to 57.1 µM
About 5,100 (32%) of roughly 16,000 compounds were called active. Inconclusive results (about 25%) are left out. Some of the results follow.
parameter: activity, negative = inhibition

Example cases with answers are listed next.
{"molecule": "Cc1nc(S(=O)(=O)c2cccc(Cl)c2)nc2c1CCC2", "activity, negative = inhibition": "18.2% [at 2.29 µM] (inactive)"}
{"molecule": "Cc1cc(C)nc(NC(=O)/C=C/c2ccc(Cl)cc2Cl)c1", "activity, negative = inhibition": "4.58% [at 2.29 µM] (inactive)"}
{"molecule": "Cc1nc(NC(=O)c2ccccc2)sc1-c1csc(Nc2ccc(Cl)cc2)n1", "activity, negative = inhibition": "3.11% [at 2.29 µM] (inactive)"}
{"molecule": "Nc1nc2c(C(=O)NCc3cccs3)nnn2c2cccc(Cl)c12", "activity, negative = inhibition": "-1.06% [at 11.4 µM] (inactive)"}

Per the record, `Oc1c(C(O)(c2ccccc2)c2ccc3ccccc3c2O)ccc2ccccc12` has activity, negative = inhibition of -13.3% [at 11.4 µM] (inactive)

Per the record, `CC(=O)OC[C@@H]1O[C@@H](O/N=C2/C[C@@H](O)[C@@H](O)[C@@H]3[C@@H]4C(=O)N(C(C)(C)C)C(=O)[C@H]4CC[C@H]23)[C@H](OC(C)=O)[C@H](OC(C)=O)[C@@H]1OC(C)=O` has activity, negative = inhibition of -17.4% [at 11.4 µM] (inactive)

Origin of values: PubChem BioAssay AID1851
